- Measured Target: T1, SegB (Sulfolobus solfataricus, UniProt Q981B2 1-109)
- T1 sequence: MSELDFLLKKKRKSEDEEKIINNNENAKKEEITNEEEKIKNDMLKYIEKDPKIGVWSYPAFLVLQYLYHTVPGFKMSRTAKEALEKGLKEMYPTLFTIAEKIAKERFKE
- Assay Notes: fluorescence polarization
Measured Attribute: Kd (nM)
Unit nM implied. Number only.

Req: // lookup Kd for 23-bp S1 DNA (dsDNA) DNA 1: TACGTAGAAGAGTCTAGACTGAC DNA 2: TCAGTCTAGACTCTTCTACGTAG
Resp: 180
